Values were extracted from patent US6168954A.

assay.method.text: GST conjugation activity with t-stilbene oxide (HPLC)
Format: biochemical
particulars: 0.4 mM electrophilic substrate, 4 mM glutathione, 0.1 M MOPS pH 7.0, corrected for uncatalyzed reaction
Experimental: The GST enzymes, expressed and purified as described in Example 5 were screened for their ability to metabolize a variety of substrates. […] For each enzyme, the conjugation reaction with each electrophilic substrate was performed by incubating 0.3 to 30 μg enzyme in 0.1 M MOPS (pH 7.0) containing 0.4 mM of the electrophilic substrate. […] Quantitation of metabolites were based on an assumption that the extinction coefficient of the conjugate was identical to that of the electrophilic substrate. […]
Please respond with reported Activity of soybean GST enzyme, T-Stilbene Oxide for every item in the list.
Write the value in nmol/min/mg as a bare number.

// lookup Activity of soybean GST enzyme, T-Stilbene Oxide for GST-A: soybean type III GST encoded by cDNA insert in clone GSTa (protein) MSDEVVLLDFWPSPFGMRVRIALAEKGIKYEYKEEDLRNKSPLLLQMNPVHKKIPVLIHNGKPICESLIAVQYIEEVWNDRNPLLPSDPYQRAQTRFWADYVDKKIYDLGRKIWTSKGEEKEAAKKEFIEALKLLEEQLGDKTYFGGDNLGFVDIALVPFYTWFKAYETFGTLNIEECPKFIAWAKRCLQKESVAKSLPDQQKVYEFIMDLRKKLGIE
0.06

// lookup Activity of soybean GST enzyme, T-Stilbene Oxide for se3.03b09: soybean type III GST encoded by cDNA insert in clone se3.03b09 (protein) MSKSEDLKLLGGWFSPFALRVQIALNLKGLEYEVVEETLNPKSDLLLKSNPVHKKIPVFFHGDKVICESAIIVEYIDEAWTNVPSILPQNAYDRANARFWFAYIDEKWFTSLRSVLVAEDDEAKKPHFEQAEEGLERLEEVFNKYSEGKAYFGGDSIGFIDIGFGSFLSWMRVIEEMSGRKLLDEKKHPGLTQWAETFAADPAVKGILPETDKLVEFAKILQLKWTAAAAAAAK
0.07

// lookup Activity of soybean GST enzyme, T-Stilbene Oxide for se6.pk0037.h4: soybean type III GST encoded by cDNA insert in clone se6.pk0037.h4, expressed in E. coli (protein) MAATQEDVTLLGVVGSPFVCRVQIALKLKGIECKFLEENLANKSDLLLKSNPVYKKVPVFIHNEKPIAESLVIVEYIDETWKNNPILPSDPYQRSFARFWSKFIDDKIVGASWKSVFTVDEKEREKNVEESLEALQFLENELQDKRFFGGDEFGFVDIAGVFIAFSIPIFQEVAGLQLFTSEKFPKLFKWSQELINHPVVKDVLPPREPLFAFFKSLYESLSASK
0.06

// lookup Activity of soybean GST enzyme, T-Stilbene Oxide for ses8w.pk0028.c6: soybean type III GST encoded by cDNA insert in clone ses8w.pk0028.c6 (protein) MAANQEDVKLLGATGSPFVCRVQIALKLKGVQYKFLEENLRNKSELLLKSNPVHKKVPVFIHNEKPIAESLVIVEYIDETWKNNPILPSDPYQRALARFWSKFIDDKVVGAAWKYIYTVDEKEREKNVEESYEALQFLENELKDKKFFGGEEIGLVDIAAVFIAFWIPIIQEVLGLKLFTSEKFPKLYKWSQEFINHPVVKQVLPPRDQLFAFYKACHESLSASK
4.04
